Where do these numbers come from? They come from patent US5698522A.

# TARGET UNDER TEST: LHRH receptor (Rattus norvegicus)
# Construct: endogenous in cells
# PROTOCOL DESCRIPTION: in vitro LHRH antagonist potency (pA2) against the agonist leuprolide
# Format: cell-based
# EXPERIMENTAL CONDITIONS: negative logarithm of the antagonist concentration which shifts the response curve produced by the agonist leuprolide to two-fold higher concentration
Where a SMILES comes first, the peptide text is derived from it. Side-chain parts run from the residue outwards. [ ]: non-standard residue; d: D form. The star is where a group is joined. Shikimoyl = O=C(C1=C[C@@H](O)[C@@H](O)[C@H](O)C1)*; dPhe(4-Cl) = N[C@H](Cc1ccc(Cl)cc1)C(=O)O; d2Nal = N[C@H](Cc1ccc2ccccc2c1)C(=O)O; Lys(iPr) = CC(C)NCCCC[C@H](N)C(=O)O; NMeY = CN[C@@H](Cc1ccc(O)cc1)C(=O)O; d3Pal = N[C@H](Cc1cccnc1)C(=O)O; Salicyloyl = O=C(c1ccccc1O)*; azaGly = NNC(=O)O
QUANTITY: Kb (pM)
Please state the figure in pM; there is no need to write the unit.

CC(=O)N[C@H](Cc1ccc2ccccc2c1)C(=O)N[C@H](Cc1ccc(Cl)cc1)C(=O)N[C@H](Cc1cccnc1)C(=O)N[C@@H](CO)C(=O)N(C)[C@@H](Cc1ccc(O)cc1)C(=O)N[C@H](CCCCNC(=O)[C@@H](C)NC(=O)C1=C[C@@H](O)[C@@H](O)[C@H](O)C1)C(=O)N[C@@H](CC(C)C)C(=O)N[C@@H](CCCNC(=N)N)C(=O)N1CCC[C@H]1C(=O)N[C@H](C)C(N)=O [Example 48d] (Ac-[d2Nal][dPhe(4-Cl)][d3Pal]S[NMeY][dK]([dA-Shikimoyl])LRP[dA]-NH2)	12.6

Then this compound:
Fill in the blank: the reported Kb of CC(=O)N[C@H](Cc1ccc2ccccc2c1)C(=O)N[C@H](Cc1ccc(Cl)cc1)C(=O)N[C@H](Cc1cccnc1)C(=O)N[C@@H](CO)C(=O)N(C)[C@@H](Cc1ccc(O)cc1)C(=O)N[C@H](CCCCNC(=O)NNC(=O)c1ccccc1O)C(=O)N[C@@H](CC(C)C)C(=O)N[C@@H](CCCCNC(C)C)C(=O)N1CCC[C@H]1C(=O)N[C@H](C)C(N)=O [Example 5c] (Ac-[d2Nal][dPhe(4-Cl)][d3Pal]S[NMeY][dK]([azaGly-Salicyloyl])L[Lys(iPr)]P[dA]-NH2) is ____.
13.2

---

# TARGET UNDER TEST: LHRH receptor (Rattus norvegicus, UniProt P30969)
# Construct: endogenous in cells
# Sequence (P30969 1-327): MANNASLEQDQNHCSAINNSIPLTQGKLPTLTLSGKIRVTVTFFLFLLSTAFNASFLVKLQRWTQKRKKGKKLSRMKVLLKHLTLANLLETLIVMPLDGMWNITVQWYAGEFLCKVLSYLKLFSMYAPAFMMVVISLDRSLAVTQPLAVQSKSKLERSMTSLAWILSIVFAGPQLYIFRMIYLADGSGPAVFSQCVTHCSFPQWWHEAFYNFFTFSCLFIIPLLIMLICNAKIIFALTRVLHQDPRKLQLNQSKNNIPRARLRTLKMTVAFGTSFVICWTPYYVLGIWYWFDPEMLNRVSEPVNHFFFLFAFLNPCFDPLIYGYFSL
# PROTOCOL DESCRIPTION: in vitro LHRH antagonist potency (pA2) against the agonist leuprolide
# Assay type: cell-based
# EXPERIMENTAL CONDITIONS: negative logarithm of the antagonist concentration which shifts the response curve produced by the agonist leuprolide to two-fold higher concentration
Where a SMILES comes first, the peptide text is derived from it. Side-chain parts run from the residue outwards. [ ]: non-standard residue; d: D form. The star is where a group is joined. NMePhe(4-NH(5-NH2-Trz-3-yl)) = CN[C@@H](Cc1ccc(Nc2n[nH]c(N)n2)cc1)C(=O)O; Shikimoyl = O=C(C1=C[C@@H](O)[C@@H](O)[C@H](O)C1)*; dPhe(4-Cl) = N[C@H](Cc1ccc(Cl)cc1)C(=O)O; d2Nal = N[C@H](Cc1ccc2ccccc2c1)C(=O)O; Lys(iPr) = CC(C)NCCCC[C@H](N)C(=O)O; NMeY = CN[C@@H](Cc1ccc(O)cc1)C(=O)O; Pyrazinecarbonyl = O=C(c1cnccn1)*; d3Pal = N[C@H](Cc1cccnc1)C(=O)O; Nicotinoyl = O=C(c1cccnc1)*; dOrn = NCCC[C@@H](N)C(=O)O; 2Furoyl = O=C(c1ccco1)*; azaGly = NNC(=O)O
QUANTITY: Kb (nM)
Please state the figure in nM; there is no need to write the unit.

These solved cases illustrate the format of a correct answer.
CC(=O)N[C@H](Cc1ccc2ccccc2c1)C(=O)N[C@H](Cc1ccc(Cl)cc1)C(=O)N[C@H](Cc1cccnc1)C(=O)N[C@@H](CO)C(=O)N(C)[C@@H](Cc1ccc(O)cc1)C(=O)N[C@H](CCCNC(=O)NNC(=O)c1ccco1)C(=O)N[C@@H](CC(C)C)C(=O)N[C@@H](CCCCNC(C)C)C(=O)N1CCC[C@H]1C(=O)N[C@H](C)C(N)=O [Example 52] (Ac-[d2Nal][dPhe(4-Cl)][d3Pal]S[NMeY][dOrn]([azaGly-2Furoyl])L[Lys(iPr)]P[dA]-NH2)	0.0155
CC(=O)N[C@H](Cc1ccc2ccccc2c1)C(=O)N[C@H](Cc1ccc(Cl)cc1)C(=O)N[C@H](Cc1cccnc1)C(=O)N[C@@H](CO)C(=O)N(C)[C@@H](Cc1ccc(O)cc1)C(=O)N[C@H](CCCCNC(=O)CNC(=O)c1cnccn1)C(=O)N[C@@H](CC(C)C)C(=O)N[C@@H](CCCNC(=N)N)C(=O)N1CCC[C@H]1C(=O)N[C@H](C)C(N)=O [Example 51e] (Ac-[d2Nal][dPhe(4-Cl)][d3Pal]S[NMeY][dK]([Gly-Pyrazinecarbonyl])LRP[dA]-NH2)	0.00692
CC(=O)N[C@H](Cc1ccc2ccccc2c1)C(=O)N[C@H](Cc1ccc(Cl)cc1)C(=O)N[C@H](Cc1cccnc1)C(=O)N[C@@H](CO)C(=O)N(C)[C@@H](Cc1ccc(O)cc1)C(=O)N[C@H](CCCCNC(=O)[C@@H](CO)NC(=O)CNC(=O)c1cccnc1)C(=O)N[C@@H](CC(C)C)C(=O)N[C@@H](CCCNC(=N)N)C(=O)N1CCC[C@H]1C(=O)N[C@H](C)C(N)=O [Example 48k] (Ac-[d2Nal][dPhe(4-Cl)][d3Pal]S[NMeY][dK]([dS-Gly-Nicotinoyl])LRP[dA]-NH2)	0.017

Lab note: need Kb for CC(=O)N[C@H](Cc1ccc2ccccc2c1)C(=O)N[C@H](Cc1ccc(Cl)cc1)C(=O)N[C@H](Cc1cccnc1)C(=O)N[C@@H](CO)C(=O)N(C)[C@@H](Cc1ccc(O)cc1)C(=O)N[C@H](CCCCNC(=O)[C@@H](Cc1cccnc1)NC(=O)C1=C[C@@H](O)[C@@H](O)[C@H](O)C1)C(=O)N[C@@H](CC(C)C)C(=O)N[C@@H](CCCNC(=N)N)C(=O)N1CCC[C@H]1C(=O)N[C@H](C)C(N)=O [Example 38f] (Ac-[d2Nal][dPhe(4-Cl)][d3Pal]S[NMeY][dK]([d3Pal-Shikimoyl])LRP[dA]-NH2) on LHRH receptor (Rattus norvegicus, UniProt P30969), anyone have it?
0.0214

// next record CC(=O)N[C@H](Cc1ccc2ccccc2c1)C(=O)N[C@H](Cc1ccc(Cl)cc1)C(=O)N[C@H](Cc1cccnc1)C(=O)N[C@@H](CO)C(=O)N(C)[C@@H](Cc1ccc(Nc2n[nH]c(N)n2)cc1)C(=O)N[C@H](CCCCNC(=O)CNC(=O)c1cccnc1)C(=O)N[C@@H](CC(C)C)C(=O)N[C@@H](CCCCNC(C)C)C(=O)N1CCC[C@H]1C(=O)N[C@H](C)C(N)=O [Example 45] (Ac-[d2Nal][dPhe(4-Cl)][d3Pal]S[NMePhe(4-NH(5-NH2-Trz-3-yl))][dK]([Gly-Nicotinoyl])L[Lys(iPr)]P[dA]-NH2)
0.00417
